The origin of these recorded values is ChEMBL document CHEMBL1955817.

System: Human immunodeficiency virus type 1 reverse transcriptase (Human immunodeficiency virus 1, UniProt Q72547)
Test summary: Inhibition of ribonuclease H activity of HIV1 reverse transcriptase using as poly(dC)-[3H]poly(rG) as substrate
Measured property: IC50

Example entries and their recorded answers appear below.
cpd_smiles=O=[N+]([O-])c1cc(I)c(O)c(/C=N/NS(=O)(=O)c2ccc(Cl)cc2)c1 reported="62 µM"
cpd_smiles=COc1ccc(CCNC(=O)C(=O)c2c[nH]c3ccccc23)cc1OC reported="> 100 µM"

Looking for the measured IC50 of "Cc1ccc(S(=O)(=O)NCN2C(=O)c3ccccc3C2=O)cc1" , can you help?
> 100 µM

* * *

The reader will find reported IC50 values listed item by item below.
System: Human immunodeficiency virus type 1 reverse transcriptase (Human immunodeficiency virus 1)
Test summary: Inhibition of RNA-dependent DNA polymerase activity of Human immunodeficiency virus 1 reverse transcriptase

cpd_smiles=O=C1OC(c2ccc(Cl)cc2)=N/C1=C/c1c(O)ccc2ccccc12 system="Human immunodeficiency virus type 1 reverse transcriptase (Human immunodeficiency virus 1)" reported="37 µM"
cpd_smiles=COc1ccccc1Nc1nc(-c2ccc(O)c(O)c2)cs1 system="Human immunodeficiency virus type 1 reverse transcriptase (Human immunodeficiency virus 1)" reported="28 µM"

So what's the measured IC50 for this one? "COc1cc(/C=N/NC(=O)c2ccccc2OC)ccc1O"
> 100 µM

Could you tell me which IC50 is on file for "C/C(=N\NS(=O)(=O)c1ccc(C)cc1)c1c(O)cc(C)oc1=O" ?
> 100 µM

Field request: IC50 | item: "Cc1ccc(S(=O)(=O)N/N=C/c2ccc(O)c(S(=O)(=O)O)c2)cc1"
> 100 µM

# get_value(readout='IC50', item= "CCOc1ccc(/C=N/NC(=O)c2ccc(O)c(OC)c2)cc1OC" )
> 100 µM

Dear colleague, I am looking for the recorded IC50 of the following compound: "COc1ccc(S(=O)(=O)N/N=C/c2cc([N+](=O)[O-])ccc2O)cc1"
100 µM

* * *

System: Human immunodeficiency virus type 1 reverse transcriptase (Human immunodeficiency virus 1)
Test summary: Inhibition of ribonuclease H activity of HIV1 reverse transcriptase using as poly(dC)-[3H]poly(rG) as substrate
# IC50 per entry

Example entries and their recorded answers appear below.
cpd_smiles=O=C1/C(=C\c2cccc(O)c2O)SC(=S)N1Cc1ccco1 reported="100 µM"
cpd_smiles=O=[N+]([O-])c1ccc(-c2csc(Nc3ccccc3O)n2)o1 reported="> 100 µM"
cpd_smiles=O=[N+]([O-])c1ccc(-c2nc(CN3CCOCC3)cs2)s1 reported="> 100 µM"
cpd_smiles=COc1cc(/C=N/NS(=O)(=O)c2ccc(N)cc2)ccc1O reported="> 100 µM"
cpd_smiles=Oc1ccc(-c2csc(Nc3ccccn3)n2)cc1O reported="18 µM"

Entry "Cc1ccc(S(=O)(=O)N/N=C/c2cccc[n+]2[O-])cc1" has what IC50?
> 100 µM

Reported IC50 for "O=C(N/N=C/c1c(O)ccc2ccccc12)c1ccncc1" : what is it?
> 100 µM

What value of measured IC50 is listed for "Nc1ccc(C(=O)Nc2ccc3c(O)cc(S(=O)(=O)O)cc3c2)cc1" ?
98 µM

Look up IC50: "COc1ccc(S(=O)(=O)N/N=C/c2cccc([N+](=O)[O-])c2O)cc1"
100 µM

What value of measured IC50 is listed for "Oc1ccc2ccccc2c1/C=N/NC(=S)N[C@@H]1CN2CCC1CC2" ?
61 µM

Consider the molecule "COc1ccc(C(=O)N/N=C/c2cc(OC)ccc2O)cc1" and give its measured IC50.
> 100 µM

What IC50 value was documented for this molecule, "COc1cc(C(=O)N/N=C/c2cccc3ccccc23)ccc1O" ?
> 100 µM

What measured IC50 goes with "CCOc1ccc(/C=N/NC(=O)c2ccc(O)c(OC)c2)cc1OC" ?
> 100 µM

Bench note: what IC50 did "CNc1ccccc1C(=O)N/N=C/c1cccc([N+](=O)[O-])c1" show?
51 µM

# lookup: IC50 of "CNc1ccccc1C(=O)N/N=C/c1c(O)ccc2ccccc12"
100 µM

Return reported IC50; argument: "O=C(N/N=C/c1cc(Cl)ccc1O)c1ccncc1"
> 100 µM

Dear colleague, I am looking for the recorded IC50 of the following molecule: "O=[N+]([O-])c1ccc(O)c(/C=N/NS(=O)(=O)c2cc(Cl)c(Cl)cc2Cl)c1"
16 µM

IC50 for "O=[N+]([O-])c1ccc(S(=O)(=O)N/N=C/c2cc([N+](=O)[O-])ccc2O)cc1" ?
> 100 µM

Please look up its IC50: "O=C1C=Cc2ccccc2/C1=C/NNS(=O)(=O)c1cc(Cl)c(Cl)cc1Cl"
10 µM

# get_value(readout='IC50', item= "COc1ccc(S(=O)(=O)N/N=C/c2cc([N+](=O)[O-])ccc2O)cc1" )
90 µM

What value of measured IC50 is listed for "CCCCC(=O)N/N=C/c1cc(Cl)ccc1[N+](=O)[O-]" ?
> 100 µM

Look up IC50: "Cc1ccc(C(=O)N/N=C/c2ccccc2O)cc1"
> 100 µM

Fill in the blank: the reported IC50 of "COc1cc(/C=N/NS(=O)(=O)c2ccc(C)cc2)cc([N+](=O)[O-])c1O" is ____.
> 100 µM

// IC50 lookup, key: "Cc1ccc(S(=O)(=O)N/N=C2/C(=O)Nc3c(Cl)cc(Cl)cc32)cc1"
> 100 µM

Name the recorded IC50 for "COc1ccc(/C=N/NC(=O)c2ccc(O)c(CN(C)C)c2)cc1" .
> 100 µM

Fill blank: measured IC50 of the molecule "Cc1ccc(S(=O)(=O)N/N=C/c2ccc(O)c(S(=O)(=O)O)c2)cc1" is ____.
> 100 µM

Which IC50 value is on record for "COc1ccc(S(=O)(=O)N/N=C/c2cc(=O)[nH]c(=O)[nH]2)cc1" ?
> 100 µM

# lookup: IC50 of "CCCCCc1cc(C(=O)N/N=C(\C)c2ccc(O)c(OC)c2)c2ccccc2n1"
> 100 µM

What value of measured IC50 is listed for "O=C(N/N=C/c1cccc([N+](=O)[O-])c1)c1ccc(O)cc1" ?
21 µM

Returns the measured IC50 for the input molecule. Input: "O=C1CN(c2cccc(C(F)(F)F)c2)C(=O)CN1/N=C/c1ccc(O)c(O)c1"
> 100 µM

* * *

# reported pIC50; entries follow
System: Human immunodeficiency virus type 1 reverse transcriptase (Human immunodeficiency virus 1, UniProt Q72547)
Test summary: Inhibition of RNA-dependent DNA polymerase activity of Human immunodeficiency virus 1 reverse transcriptase
The meaning of pIC50 here: minus log10 of the concentration in molar units.

// solved cases for pIC50 follow
cpd_smiles=O=C1/C(=C\c2cccc(O)c2O)SC(=S)N1Cc1ccco1 measured_property=pIC50 reported=6.00
cpd_smiles=Nc1ccc(C(=O)Nc2ccc3c(O)cc(S(=O)(=O)O)cc3c2)cc1 measured_property=pIC50 reported=4.80
cpd_smiles=O=C1Nc2ccccc2/C1=N/Nc1nc(-c2ccc(O)c(O)c2)cs1 measured_property=pIC50 reported=5.85
cpd_smiles=O=C1C=Cc2ccccc2/C1=C/NNS(=O)(=O)c1cc(Cl)c(Cl)cc1Cl measured_property=pIC50 reported=5.00
cpd_smiles=O=[N+]([O-])c1cc(I)c(O)c(/C=N/NS(=O)(=O)c2ccc(Cl)cc2)c1 measured_property=pIC50 reported=4.17
cpd_smiles=O=[N+]([O-])c1ccc(-c2csc(Nc3ccccc3O)n2)o1 measured_property=pIC50 reported=4.18
cpd_smiles=CNc1ccccc1C(=O)N/N=C/c1cccc([N+](=O)[O-])c1 measured_property=pIC50 reported=4.72

Now look at this entry.
Quick one: pIC50 of "O=[N+]([O-])c1ccc(S(=O)(=O)N/N=C/c2cc([N+](=O)[O-])ccc2O)cc1" ?
4.11

* * *

System: Human immunodeficiency virus type 1 reverse transcriptase (Human immunodeficiency virus 1, UniProt Q72547)
Test summary: Inhibition of ribonuclease H activity of HIV1 reverse transcriptase using as poly(dC)-[3H]poly(rG) as substrate
Measured property: pIC50
Reminder that pIC50 is minus the log10 of a molar concentration.

cpd_smiles=O=S(=O)(N/N=C/c1cc(Cl)ccc1O)c1cc(Cl)c(Cl)cc1Cl reported=4.82
cpd_smiles=COc1ccc(C(=O)N/N=C/c2cccc([N+](=O)[O-])c2)cc1 reported=4.66
cpd_smiles=Cc1ccc(S(=O)(=O)N/N=C/c2c(O)ccc3ccccc23)cc1 reported=4.24

What value of pIC50 has been recorded for this entry: "COc1cc(/C=N/NC(=O)c2ccccc2OC)ccc1O"
4.00

* * *

System: Human immunodeficiency virus type 1 reverse transcriptase (Human immunodeficiency virus 1, UniProt Q72547)
Test summary: Inhibition of RNA-dependent DNA polymerase activity of Human immunodeficiency virus 1 reverse transcriptase
Measured property: IC50 (µM)
Quick note: give the figure in µM, leave out the unit.

Which measured IC50 value corresponds to "COc1ccc(C(=O)N/N=C/c2cccc([N+](=O)[O-])c2)cc1" ?
70

Reported IC50, compound "CCCCC(=O)N/N=C/c1cc(Cl)ccc1[N+](=O)[O-]" : ____
85

Recorded IC50 of "COc1ccc2ccccc2c1/C=N\NC(=O)c1ccc(C(C)(C)C)cc1" , please.
11.2

So what does the record say about IC50 for "CC1=CC(=O)/C(=C/Nc2nc(-c3cccc([N+](=O)[O-])c3)cs2)C(=O)O1" ?
29

What does the data say about its IC50? Entry: "Cc1ccc(S(=O)(=O)N/N=C2/C(=O)Nc3c(Cl)cc(Cl)cc32)cc1"
51

Fill in the blank: the reported IC50 of "O=[N+]([O-])c1cccc(/C=N/NS(=O)(=O)c2ccc(Cl)cc2)c1O" is ____.
59

State the recorded IC50 for this entry: "O=[N+]([O-])c1cc(I)cc(/C=N/NS(=O)(=O)c2ccc(Cl)cc2)c1O"
44

Entry under review: "Cc1ccc(S(=O)(=O)NNC(=O)c2nc3ccccc3c(=O)[nH]2)cc1" . Reported IC50?
73
